# Run Description: protein stability index of a GFP-peptide fusion (yeast GPS) (PSI 1-4); higher = more stable; sorted into four equal gates, so the index is relative within each strain
# Condition Details: san1∆
protein stability index by entry:
Please reply with the value in numeric form only.

Which value of protein stability index has been reported for NEVYSAYVVNDTAPKPN [DLS1] in the records?
2.95

Which value of protein stability index has been reported for IEMKDVSSKPSKPESSV [MED1] in the records?
2.89

Which value of protein stability index has been reported for TTYSVDDYYKEIIGGGS [ISW2] in the records?
3.19

Which value of protein stability index has been reported for RFVLSDDYSNLKREERQ [SMC3] in the records?
2.43

Which value of protein stability index has been reported for QDVAAKCKEVGITAVHV [RPS14B] in the records?
2.8

Which value of protein stability index has been reported for TSPTMPDYYVSILSFVD [RPT2] in the records?
2.27

Which value of protein stability index has been reported for MAPVKSQESINQKLALV [RPL30] in the records?
2.18

Which value of protein stability index has been reported for YGEATSPFGAYGEAPTS [RPO21] in the records?
2.9

Which value of protein stability index has been reported for HFAWLPTHIWNAKRSHM [POP1] in the records?
1.45

Which value of protein stability index has been reported for KKTRIIPRHLQLAIRND [HTA1] in the records?
3.03

Which value of protein stability index has been reported for GNISSSTVKKKDIVNIS [REC8] in the records?
2.88

====

protein stability index by entry:
# Run Description: protein stability index of a GFP-peptide fusion (yeast GPS) (PSI 1-4); higher = more stable; sorted into four equal gates, so the index is relative within each strain
# Condition Details: san1∆
Please reply with the value in numeric form only.

Some sequences with known protein stability index results, for comparison:
record_sequence="EINNLIQLPASLAATYS [ARP9]" test_readout="protein stability index" data_value=1.96
record_sequence="ALYVLRERIRKGLQIYQ [PRP8]" test_readout="protein stability index" data_value=2.26
record_sequence="VELLDSNDRVNPLIELT [ITC1]" test_readout="protein stability index" data_value=3.28
record_sequence="PGMPNMPGMPNMPGMPK [SRP54]" test_readout="protein stability index" data_value=3.21
record_sequence="ENPNFWRQFGNRMQISP [GRR1]" test_readout="protein stability index" data_value=2.93
record_sequence="TTSERVSNENKKNIDYQ [RRI1]" test_readout="protein stability index" data_value=3.13
record_sequence="RQMNLVITLLNNSSITL [YCS4]" test_readout="protein stability index" data_value=1.19
record_sequence="RKMTTDDDINWQELARS [RPT5]" test_readout="protein stability index" data_value=3.16

Which value of protein stability index has been reported for SKINSTELLDYATKLSK [MED4] in the records?
2.49

Which value of protein stability index has been reported for AGVLNGTLEYGTCFGGS [RET1] in the records?
2.99

Which value of protein stability index has been reported for AQLTLKRCKHFELGGEK [RPL42A] in the records?
2.89

Which value of protein stability index has been reported for TSTEKLYKLNDKIAVAV [PRE9] in the records?
3.1

Which value of protein stability index has been reported for LQQKQRDLILKKGEYAR [SMC3] in the records?
2.5

Which value of protein stability index has been reported for TGISQKSMSILNSFVND [HTB1] in the records?
2.6

Which value of protein stability index has been reported for DLKNTRMKSITSTSQKI [SNF5] in the records?
3.17

Which value of protein stability index has been reported for NMNLNPQMFLNQQAQAR [GAL11] in the records?
2.37

Which value of protein stability index has been reported for QKEQNVNNRDSEKGFSK [YCS4] in the records?
2.41

Which value of protein stability index has been reported for VVEACGNIVAELAQDPQ [YCS4] in the records?
3.04

Which value of protein stability index has been reported for SAGQPNLLLSASRDKTL [ASC1] in the records?
2.7

Which value of protein stability index has been reported for ITPSAMKLVPSIPPATI [RPB5] in the records?
2.35

Which value of protein stability index has been reported for HECRLRDMTYSAPIYVD [RET1] in the records?
2.01

Which value of protein stability index has been reported for LIIQKIPSLQNNIEENL [ECM29] in the records?
2.66

Which value of protein stability index has been reported for NLYDDVKCWSKFIEKFQ [MED1] in the records?
3.27

Which value of protein stability index has been reported for ERKTLERQQENLLIQRL [SWI3] in the records?
3.12
